# Assay details: Solubility of compound in water
# Type: physicochemical
# Assay setup: buffer
Readout name: solubility

Please review the following examples before continuing.
mol_smiles=COc1ccc2c(c1)c(-c1[nH]c(NC(C)=O)nc1C)cn2S(=O)(=O)c1ccc2ccccc2c1 result=Insoluble
mol_smiles=CCC(=O)Nc1nc(C)c(-c2cn(S(=O)(=O)c3cccc4ccccc34)c3ccc(OC)cc23)[nH]1 result=Insoluble
mol_smiles=CCC(=O)Nc1nc(C)c(-c2cccc3c2ccn3S(=O)(=O)c2ccccc2)[nH]1 result=Insoluble
mol_smiles=COc1ccc2c(c1)c(-c1[nH]c(NC(C)=O)nc1C)cn2S(=O)(=O)c1ccccc1 result=Insoluble

Problem: If you can, please state the reported solubility value of `CCc1nc(N)[nH]c1-c1cn(S(=O)(=O)c2ccccc2)c2ccc(OC)cc12.Cl` .
Solution: Soluble

Problem: If you can, please state the reported solubility value of `COc1ccc2c(c1)c(-c1[nH]c3cccc[n+]3c1C)cn2S(=O)(=O)c1ccccc1.[Br-]` .
Solution: Soluble

Problem: If you can, please state the reported solubility value of `COc1ccc2c(c1)c(-c1[nH]c(NCc3ccccc3)nc1C)cn2S(=O)(=O)c1ccccc1` .
Solution: Insoluble

Problem: If you can, please state the reported solubility value of `COc1ccc2c(c1)c(-c1cnc(N)[nH]1)cn2S(=O)(=O)c1cccc(F)c1.Cl` .
Solution: Soluble

Problem: If you can, please state the reported solubility value of `O=S(=O)(c1ccccc1)n1cc(-c2c[n+]3cccnc3[nH]2)c2ccccc21.[Br-]` .
Solution: Soluble

Problem: If you can, please state the reported solubility value of `CC(=O)Nc1nc(C)c(-c2cn(S(=O)(=O)c3ccccc3)c3ccccc23)[nH]1` .
Solution: Insoluble
